Known Kd of a selection of binders
# measured-on: T1, CC2-LZ domain of NEMO (mouse CC2-LZ) (mouse, UniProt O88522 251-337, limits assumed)
# T1 construct: domain: CC2-LZ; The methods say that the mouse CC2-LZ was used in the fluorescence anisotropy assay; also called NOA; UBAN
# test-summary: fluorescence polarization, labelled peptide fixed at 0.1 µM, CC2-LZ titrated
Bridges are numbered along the chain shown (N, C = ends). Where no end group is shown, it is not given here. [ ]: non-standard residue; d: D form. R8 = C=CCCCCCC[C@@](C)(N)C(=O)O; S5 = C=CCCC[C@](C)(N)C(=O)O
Dear colleague, please return just the value in µM, with no unit written.

Consider the worked cases shown below.
1) Ac-CRQIKIWFQNRRMKWKKLK[R8]QADIYK[S5]RFQAERHAREK-NH2 (staple 20-27; also: Cys1 thiol labelled with BODIPY or FITC (which one not fixed), conformer B, With N-terminal antennapedia) [A-UBI-SAHN A303-A310, conformer B]    0.02
2) Ac-CRQIKIWFQNRRMKWKKLK[R8]QADIYK[S5]RFQAERHAREK-NH2 (staple 20-27; not fully specified; also: conformer A, With N-terminal antennapedia; also called A-UBI-SAHNA303-A310 (A)) [A-UBI-SAHN A303-A310, conformer A]    0.3
3) Ac-CLK[R8]QADIYK[S5]RFQAERHAREK (staple 4-11; not fully specified (C-terminus); also: extra N-terminal Cys labelled with BODIPY or FITC (label not settled), staple isomer B (trans), also called UBI-SAHNA303-A310 (B)) [UBI-SAHN A303-A310, conformer B]    211
4) Ac-CRQIKIWFQNRRMKWKKLKAQA[R8]IYKARF[S5]AERHAREK-NH2 (staple 23-30; also: extra N-terminal Cys labelled with BODIPY or FITC (label not settled), staple isomer B (trans), With N-terminal antennapedia; also called A-UBI-SAHND306-Q313 (B)) [A-UBI-SAHN D306-Q313, conformer B]    0.05
5) Ac-CLKAQA[S5]IYK[S5]RFQAERHAREK (staple 7-11; also: N-terminal Cys labelled with BODIPY or FITC, which one is not given here, Stapled i,i+4; also called D306 R8-A310 S5) [UBI-SAHN D306-A310]    85

# input Kd lookup needed for Ac-CRQIKIWFQNRRMKWKKLKAQA[R8]IYKARF[S5]AERHAREK-NH2 (staple 23-30; also: extra N-terminal Cys labelled with BODIPY or FITC (label not settled), staple isomer A (cis), With N-terminal antennapedia; also called A-UBI-SAHND306-Q313 (A)) [A-UBI-SAHN D306-Q313, conformer A] , thanks.
# output 0.06
